MIC values, listed per item
- System: Klebsiella pneumoniae
- protocol: Antimicrobial activity against Klebsiella pneumoniae NCTC 418 incubated for 16 to 20 hrs in full muller hinton medium by broth microdilution method
- Type: functional
- runParameters: time 16-20 hrs
Non-standard residues stand in square brackets, D forms with d. Residues, ends and D or L forms follow the SMILES beside them. ξ: configuration not given here. ξY = NC(Cc1ccc(O)cc1)C(=O)O; ξR = N=C(N)NCCCC(N)C(=O)O; ξD = NC(CC(=O)O)C(=O)O; Nleu = CC(C)CNCC(=O)O; ξL = CC(C)CC(N)C(=O)O; Nlys = NCCCCNCC(=O)O; ξK = NCCCCC(N)C(=O)O; ξV = CC(C)C(N)C(=O)O; ξP = O=C(O)C1CCCN1

These solved cases illustrate the format of a correct answer.
compound="CC[C@H](C)[C@H](NC(=O)[C@H](CCCNC(=N)N)NC(=O)C(CCCNC(=N)N)NC(=O)C1CCCN1C(=O)C1CCCN1C(=O)C(CCCNC(=N)N)NC(=O)C1CCCN1C(=O)C(CCCNC(=N)N)NC(=O)C1CCCN1C(=O)C(CC(C)C)NC(=O)C(Cc1ccc(O)cc1)NC(=O)C1CCCN1C(=O)C1CCCN1C(=O)C(CCCCN)NC(=O)C(CC(=O)O)NC(=O)C(N)C(C)C)C(=O)N[C@@H](Cc1ccc(O)cc1)C(=O)N[C@@H](CC(N)=O)C(=O)N[C@@H](CCCNC(=N)N)C(N)=O (some centres undefined) (H-[ξV][ξD][ξK][ξP][ξP][ξY][ξL][ξP][ξR][ξP][ξR][ξP][ξP][ξR]RIYNR-NH2)" observable=MIC readoutvalue="> 64 mg/L"
compound="CCC(C)C(NC(=O)C(CCCNC(=N)N)NC(=O)C(CCCNC(=N)N)NC(=O)C1CCCN1C(=O)C1CCCN1C(=O)C(CCCNC(=N)N)NC(=O)C1CCCN1C(=O)C(CCCNC(=N)N)NC(=O)C1CCCN1C(=O)C(CC(C)C)NC(=O)C(Cc1ccc(O)cc1)NC(=O)C1CCCN1C(=O)C1CCCN1C(=O)C(CCCCN)NC(=O)C(CC(=O)O)NC(=O)C(N)C(C)C)C(=O)NC(Cc1ccc(O)cc1)C(=O)NC(CC(N)=O)C(=O)NC(CCCNC(=N)N)C(N)=O (centres undefined) (H-VDKPPYLPRPRPPRRIYNR-NH2; configuration not given here)" observable=MIC readoutvalue="> 64 mg/L"
compound="CC(C)C[C@H](NC(=O)[C@H](CC(C)C)NC(=O)[C@H](CC(C)C)NC(=O)[C@@H](CCCCN)NC(=O)[C@H](CC(C)C)NC(=O)[C@H](CC(C)C)NC(=O)[C@@H](CCCCN)NC(=O)[C@H](CC(C)C)NC(=O)[C@H](CC(C)C)NC(=O)[C@@H](CCCCN)NC(=O)[C@H](N)CCCCN)C(N)=O (H-[dK][dK]LL[dK]LL[dK]LLL-NH2)" observable=MIC readoutvalue="8 mg/L"

Ask: Find the recorded MIC belonging to CC(C)C[C@H](NC(=O)CN(CC(C)C)C(=O)[C@H](CC(C)C)NC(=O)CN(CCCCN)C(=O)[C@H](CC(C)C)NC(=O)CN(CC(C)C)C(=O)[C@H](CCCCN)NC(=O)CN(CC(C)C)C(=O)[C@H](CC(C)C)NC(=O)CN(CCCCN)C(=O)[C@@H](N)CCCCN)C(N)=O (H-K[Nlys]L[Nleu]K[Nleu]L[Nlys]L[Nleu]L-NH2) and report it.
Result: > 32 mg/L
